- SYSTEM_TESTED: human P2X3 receptor (Homo sapiens (Human))
- Sequence (P56373 whole entry): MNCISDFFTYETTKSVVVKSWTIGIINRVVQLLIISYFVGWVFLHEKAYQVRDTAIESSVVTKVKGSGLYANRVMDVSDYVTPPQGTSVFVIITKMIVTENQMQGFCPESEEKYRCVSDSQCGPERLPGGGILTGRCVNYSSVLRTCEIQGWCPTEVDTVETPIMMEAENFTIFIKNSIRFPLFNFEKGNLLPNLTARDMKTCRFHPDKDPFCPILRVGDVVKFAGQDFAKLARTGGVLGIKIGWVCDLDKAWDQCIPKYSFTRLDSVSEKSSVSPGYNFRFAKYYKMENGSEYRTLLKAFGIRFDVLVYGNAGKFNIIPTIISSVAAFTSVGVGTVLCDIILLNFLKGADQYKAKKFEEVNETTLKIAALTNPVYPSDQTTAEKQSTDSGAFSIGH
- METHOD_NOTES: Intracellular calcium measurement (FLIPR, Fluo-4) of antagonist activity at human P2X3 receptors
- Format: cell-based
- ASSAY_CONTEXT: human P2X3, FLIPR calcium assay, agonist α,β-Me-ATP; read-out: hP2X3 IC50
pIC50: −log10 of the molar value.
Label scheme for pIC50: lower than 7 is condition not met, 7 and above is condition met.

| COMPOUND | ASSIGNED_LABEL |
| --- | --- |
| CC[C@@H](NC(=O)c1cc(OC2COC2)cc(-c2ncc(C)s2)c1)c1cnc(C(F)(F)F)nc1 | condition not met |
| Cc1cnc(-c2cc(OCC3CC3)cc(C(=O)NC(C)c3ncc(Cl)cc3F)c2)s1 (racemic) | condition met |
| COCCOc1cc(C(=O)N[C@H](C)c2cnc(C)nc2)cc(-c2ncc(C)s2)c1 | condition not met |
| Cc1cnc(-c2cc(OC3CCNCC3)cc(C(=O)N[C@H](C)c3ccc(C(F)(F)F)nn3)c2)s1 | condition met |
| Cc1cnc(-c2cc(OC3CC4(CNC4)C3)cc(C(=O)N[C@H](C)c3cnc(C(F)(F)F)nc3)c2)s1 | condition met |
| CCc1cnc(-c2cc(OC[C@H]3CCOC3)cc(C(=O)N[C@H](C)c3cnc(C)cn3)c2)s1 | condition met |
